Target: SIX1-Q177R homeodomain (human, UniProt Q15475 108-198, Q177R)
Sequence: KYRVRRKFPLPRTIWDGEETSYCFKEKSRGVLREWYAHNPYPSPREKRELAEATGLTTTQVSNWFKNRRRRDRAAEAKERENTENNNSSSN
Assay: universal protein binding microarray; Universal all-10-mer PBM (8x60K, AMADID 030236), 300 nM GST-tagged protein, Alexa Fluor 488 anti-GST; buffer, salt, pH and temperature not stated (as in Berger); high values mean tight binding
Details: protein: ivt; tags: N-terminal GST; dsDNA, one strand shown
Whole data set: some 33,000 sequences, median “e-score” near -0.05, cut for the highest 2% near 0.38. This is one part of a sample in which the highest values are shown more often than they occur.
Mark YES only for binding signal values smaller than 0.3 E-score; exact matches and larger values are NO.

* CACCATGA | YES
* GGGGAGTA | YES
* CCGGAGTA | YES
* CGTGTTCC | NO
* GTGGAGTA | YES
* AACGTACA | YES
